The values you see were collected from ChEMBL document CHEMBL4828746.

biological target: Core antigen (Hepatitis B virus); assay: Inhibition of capsid protein in HBV infected in human HepDES19 cells assessed as inhibition of viral replication by measuring plus polarity DNA level at 20 uM incubated for 3 days by strand preferential qPCR analysis relative to control; type: cell-based; design: scale not given: the % may be the effect or the level left; conditions: time 3.0 day
Consider the following compounds; for each one, report its Activity.
Answer format: value, then unit.

Notebook entry, Core antigen (Hepatitis B virus) assay: Activity of CCOC(=O)C1=C(CN2CCC3(CNC(=O)C3)C2)NC(c2nccs2)=NC1c1ccc(F)cc1Br (stereo unspecified) = ?
3%

Requested read-out Activity, target or system Core antigen (Hepatitis B virus), entry CCOC(=O)C1=C(CN2CCC3(CC(=O)N(Cc4ccccc4)C3=O)C2)NC(c2nccs2)=NC1c1ccc(F)cc1Br (stereo unspecified)
2%

Enter reported Activity observed with Core antigen (Hepatitis B virus) for CCOC(=O)C1=C(CN2CC3(CNC3)C2)NC(c2nccs2)=NC1c1ccc(F)cc1Br (stereo unspecified)
87.4%

For the record CCOC(=O)C1=C(CN2CCC3(CC2)OCCO3)NC(c2nccs2)=NC1c1ccc(F)cc1Br (stereo unspecified) , what value of Activity is listed for Core antigen (Hepatitis B virus)?
3.4%

Under Core antigen (Hepatitis B virus): Activity value of CCOC(=O)C1=C(CN2CCC3(CCN(C(=O)OC(C)(C)C)C3)C2)NC(c2nccs2)=NC1c1ccc(F)cc1Br (stereo unspecified) ?
16.8%

Param readout= Activity; system= Core antigen (Hepatitis B virus); entry= CCOC(=O)C1=C(CN2CCC3(CC2)CNC3)NC(c2nccs2)=NC1c1ccc(F)cc1Br (stereo unspecified) ; returns value.
113%

Kindly state the measured Activity obtained for CCOC(=O)C1=C(CN2CC3(CCN(C(=O)OC(C)(C)C)C3)CC2=O)NC(c2nccs2)=NC1c1ccc(F)cc1Br (stereo unspecified) with Core antigen (Hepatitis B virus).
1.8%

# value lookup — system Core antigen (Hepatitis B virus), readout Activity, item CCOC(=O)C1=C(CN2CC3(C2)CN(C(=O)OC(C)(C)C)C3)NC(c2nccs2)=NC1c1ccc(F)cc1Br (stereo unspecified)
105%

Record lookup: for Core antigen (Hepatitis B virus), what Activity belongs to CCOC(=O)C1=C(CN2CC3(CNC3)CC2=O)NC(c2nccs2)=NC1c1ccc(F)cc1Br (stereo unspecified) ?
108%

Look up Activity with Core antigen (Hepatitis B virus) for this compound: CCOC(=O)C1=C(CN2CCC3(CC2)CNC3=O)NC(c2nccs2)=NC1c1ccc(F)cc1Br (stereo unspecified)
2.4%

Query for Core antigen (Hepatitis B virus): what Activity does the record show for Nc1ccn([C@@H]2CS[C@H](CO)O2)c(=O)n1 ?
4%

Report Activity for CCOC(=O)C1=C(CN2CCC3(CCNCC3)C2)NC(c2nccs2)=NC1c1ccc(F)cc1Br (stereo unspecified) tested on Core antigen (Hepatitis B virus).
88.4%

Can you look up Activity on Core antigen (Hepatitis B virus) for CCOC(=O)C1=C(CN2CCC3(CCNC3)C2=O)NC(c2nccs2)=NC1c1ccc(F)cc1Br (stereo unspecified) ?
109%

API: value(readout=Activity, system=Core antigen (Hepatitis B virus)) for record CCOC(=O)C1=C(CN2CCC3(CCNCC3)CC2)NC(c2nccs2)=NC1c1ccc(F)cc1Br (stereo unspecified)
106%

API: value(readout= Activity, system= Core antigen (Hepatitis B virus), query= CCOC(=O)C1=C(CN2CC3(CC2=O)CN(C(=O)OC(C)(C)C)C3)NC(c2nccs2)=NC1c1ccc(F)cc1Br (stereo unspecified) )
3.5%

What measured Activity is associated with CCOC(=O)C1=C(CN2CCC3(CCN(C(=O)OC(C)(C)C)CC3)C2)NC(c2nccs2)=NC1c1ccc(F)cc1Br (stereo unspecified) on Core antigen (Hepatitis B virus)?
102%

Item: CCOC(=O)C1=C(CN2CCC3(CCNC3=O)CC2)NC(c2nccs2)=NC1c1ccc(F)cc1Br (stereo unspecified) Test system: Core antigen (Hepatitis B virus) Read-out: Activity Value: ?
18.3%

Quick check: Activity on Core antigen (Hepatitis B virus), item CCOC(=O)C1=C(CN2CCC3(CCN(C(=O)OC(C)(C)C)C3)C2=O)NC(c2nccs2)=NC1c1ccc(F)cc1Br (stereo unspecified) ?
0.8%

Observed Activity on Core antigen (Hepatitis B virus) for CCOC(=O)C1=C(CN2CCC3(CCNC3)CC2)NC(c2nccs2)=NC1c1ccc(F)cc1Br (stereo unspecified) , please.
105%

Lookup: Activity / Core antigen (Hepatitis B virus) / CCOC(=O)C1=C(CN2CC3(CCNC3)CC2=O)NC(c2nccs2)=NC1c1ccc(F)cc1Br (stereo unspecified)
120%

Return Activity measured with Core antigen (Hepatitis B virus) given this compound: CCOC(=O)C1=C(CN2CCC3(CC2)CNC(=O)C3)NC(c2nccs2)=NC1c1ccc(F)cc1Br (stereo unspecified)
2.4%

Form entry - test system: Core antigen (Hepatitis B virus); read-out: Activity; compound: CCOC(=O)C1=C(CN2CCC3(CC2)CC(N)C3)NC(c2nccs2)=NC1c1ccc(F)cc1Br (stereo unspecified)
114%

Item: CCOC(=O)C1=C(CN2CCC3(CNC3)C2)NC(c2nccs2)=NC1c1ccc(F)cc1Br (stereo unspecified) Test system: Core antigen (Hepatitis B virus) Read-out: Activity Value: ?
82.2%

Field: Activity (Core antigen (Hepatitis B virus)). Entry: CCOC(=O)C1=C(CN2CCC3(C2)CN(C(=O)OC(C)(C)C)C3)NC(c2nccs2)=NC1c1ccc(F)cc1Br (stereo unspecified)
54.7%

# returns recorded Activity (system: Core antigen (Hepatitis B virus)) for CCOC(=O)C1=C(CN2CCC3(CC2)CC(=O)NC3=O)NC(c2nccs2)=NC1c1ccc(F)cc1Br (stereo unspecified)
22.4%

GET /values?readout=Activity&system=Core antigen (Hepatitis B virus)&item= CCOC(=O)C1=C(CN2CCC3(CC2)CC(NC(=O)OC(C)(C)C)C3)NC(c2nccs2)=NC1c1ccc(F)cc1Br (stereo unspecified)
111%
